Tested on: Diamond Back Moth (Plutella xylostella)
Assay: Test Example 1: insecticidal effect on diamond back moth, Chinese cabbage seedling with eggs immersed in liquid chemical
Assay type: in vivo
Conditions: 5 ppm; eggs on Chinese cabbage seedling immersed about 30 seconds; six days after immersion, 25° C.
Protocol: Insecticidal Effect on Diamond Back Moth (Plutella xylostella) Adult diamond back moths were released and allowed to oviposit on a Chinese cabbage seedling. […] Six days after the immersion, the hatched insects were counted. The mortality was calculated according to the following equation and the insecticidal effect was judged according to the criterion shown below. […]
observable: Test Example 1 insecticidal effect (mortality grade)

CC(C)(CS(C)(=O)=O)NC(=O)c1c(I)cccc1C(=O)Nc1ccc(OC(F)(F)C(F)OC(F)(F)F)cc1Cl (stereo not shown) [Compound 1-76] ... A (Mortality 100%)
CC(C)(CS(C)(=O)=O)NC(=O)c1c(I)cccc1C(=O)Nc1ccc(OC(F)(F)C(F)C(F)(F)F)cc1Cl (stereo not shown) [Compound 1-68] ... A (Mortality 100%)
CC(C)(CS(C)(=O)=O)NC(=O)c1c(I)cccc1C(=O)Nc1ccc(OC(F)F)c(Cl)c1Cl [Compound 1-45] ... A (Mortality 100%)

---

Test system: Common Cutworm (Spodoptera litura)
Assay: Test Example 2: insecticidal effect on common cutworm, cabbage leaf immersion
Assay type: in vivo
Conditions: 5 ppm; cabbage leaf immersed; second-instar larvae; eight days after inoculation, 25° C.
Text: Insecticidal Effect on Common Cutworm (Spodoptera litura) A piece of cabbage leaf (cultivar; Shikidori) was immersed for about 30 seconds in a liquid chemical prepared by diluting a preparation containing each compound listed in Table 1 or 2 as an active ingredient to adjust the prescribed concentration. […] Eight days after the inoculation, the dead and alive were counted. […]
observable: Test Example 2 insecticidal effect (mortality grade)

Answered examples (6):
CSCC(C)(C)NC(=O)c1c(I)cccc1C(=O)Nc1ccc(OC(F)(F)Cl)cc1Cl ... A (Mortality 100%)
CSCC(C)(C)NC(=O)c1c(I)cccc1C(=O)Nc1ccc(Oc2ccc(C(F)(F)F)cn2)cc1Cl ... E (Mortality 49-0%)
CC(C)(CS(C)(=O)=O)NC(=O)c1c(I)cccc1C(=O)Nc1ccc(OC(F)(F)C(F)OC(F)(F)C(F)(F)C(F)(F)F)cc1Cl (centres unmarked) ... A (Mortality 100%)
CSCC(C)(C)NC(=O)c1c(I)cccc1C(=O)Nc1ccc(OC(F)(F)C(F)OC(F)(F)C(F)(F)C(F)(F)F)cc1Cl (centres unmarked) ... A (Mortality 100%)
C[S+]([O-])CC(C)(C)NC(=O)c1c(I)cccc1C(=O)Nc1ccc(Oc2ncc(C(F)(F)F)cc2Cl)cc1Cl (centres unmarked) ... E (Mortality 49-0%)
CSCC(C)(C)NC(=O)c1c(I)cccc1C(=O)Nc1ccc(Oc2ncc(C(F)(F)F)cc2Cl)c(Cl)c1Cl ... E (Mortality 49-0%)

The reported Test Example 2 insecticidal effect (mortality grade) of the compound CSCC(C)(C)NC(=O)c1c(I)cccc1C(=O)Nc1cc(Cl)c(OC(F)(Cl)C(F)(Cl)C(F)(F)F)cc1Cl (centres unmarked) was E (Mortality 49-0%)

Reported Test Example 2 insecticidal effect (mortality grade) for CC(C)(CS(C)(=O)=O)NC(=O)c1c(I)cccc1C(=O)Nc1ccc(OC(F)(F)C(F)OC(F)(F)F)cc1Cl (centres unmarked) was E (Mortality 49-0%)

Please fill in: Test Example 2 insecticidal effect (mortality grade) reported for CSCC(C)(C)NC(=O)c1c(I)cccc1C(=O)Nc1ccc(OC(F)(F)C(F)C(F)(F)F)c(Cl)c1Cl (centres unmarked) [Compound 1-66] = E (Mortality 49-0%)

Entry C[S+]([O-])CC(C)(C)NC(=O)c1c(I)cccc1C(=O)Nc1ccc(OC(F)F)c(Cl)c1Cl (centres unmarked) ; Test Example 2 insecticidal effect (mortality grade) = E (Mortality 49-0%)

The recorded Test Example 2 insecticidal effect (mortality grade) for entry `CSCC(C)(C)NC(=O)c1c(I)cccc1C(=O)Nc1ccc(-c2ccc(Cl)cc2)cc1Cl` equals E (Mortality 49-0%)

CSCC(C)(C)NC(=O)c1c(I)cccc1C(=O)Nc1ccc(OC(F)(F)C(F)Cl)cc1Cl (centres unmarked) has a reported Test Example 2 insecticidal effect (mortality grade) of E (Mortality 49-0%)

Data provenance: patent US20040097595A1
